For each record, write down the corresponding IC50.
Molecular target: Kdr (Homo sapiens)
Construct: Kinases are expressed as either kinase domains or full length constructs; made in house
Sequence (P35968 20-1356, species assumed): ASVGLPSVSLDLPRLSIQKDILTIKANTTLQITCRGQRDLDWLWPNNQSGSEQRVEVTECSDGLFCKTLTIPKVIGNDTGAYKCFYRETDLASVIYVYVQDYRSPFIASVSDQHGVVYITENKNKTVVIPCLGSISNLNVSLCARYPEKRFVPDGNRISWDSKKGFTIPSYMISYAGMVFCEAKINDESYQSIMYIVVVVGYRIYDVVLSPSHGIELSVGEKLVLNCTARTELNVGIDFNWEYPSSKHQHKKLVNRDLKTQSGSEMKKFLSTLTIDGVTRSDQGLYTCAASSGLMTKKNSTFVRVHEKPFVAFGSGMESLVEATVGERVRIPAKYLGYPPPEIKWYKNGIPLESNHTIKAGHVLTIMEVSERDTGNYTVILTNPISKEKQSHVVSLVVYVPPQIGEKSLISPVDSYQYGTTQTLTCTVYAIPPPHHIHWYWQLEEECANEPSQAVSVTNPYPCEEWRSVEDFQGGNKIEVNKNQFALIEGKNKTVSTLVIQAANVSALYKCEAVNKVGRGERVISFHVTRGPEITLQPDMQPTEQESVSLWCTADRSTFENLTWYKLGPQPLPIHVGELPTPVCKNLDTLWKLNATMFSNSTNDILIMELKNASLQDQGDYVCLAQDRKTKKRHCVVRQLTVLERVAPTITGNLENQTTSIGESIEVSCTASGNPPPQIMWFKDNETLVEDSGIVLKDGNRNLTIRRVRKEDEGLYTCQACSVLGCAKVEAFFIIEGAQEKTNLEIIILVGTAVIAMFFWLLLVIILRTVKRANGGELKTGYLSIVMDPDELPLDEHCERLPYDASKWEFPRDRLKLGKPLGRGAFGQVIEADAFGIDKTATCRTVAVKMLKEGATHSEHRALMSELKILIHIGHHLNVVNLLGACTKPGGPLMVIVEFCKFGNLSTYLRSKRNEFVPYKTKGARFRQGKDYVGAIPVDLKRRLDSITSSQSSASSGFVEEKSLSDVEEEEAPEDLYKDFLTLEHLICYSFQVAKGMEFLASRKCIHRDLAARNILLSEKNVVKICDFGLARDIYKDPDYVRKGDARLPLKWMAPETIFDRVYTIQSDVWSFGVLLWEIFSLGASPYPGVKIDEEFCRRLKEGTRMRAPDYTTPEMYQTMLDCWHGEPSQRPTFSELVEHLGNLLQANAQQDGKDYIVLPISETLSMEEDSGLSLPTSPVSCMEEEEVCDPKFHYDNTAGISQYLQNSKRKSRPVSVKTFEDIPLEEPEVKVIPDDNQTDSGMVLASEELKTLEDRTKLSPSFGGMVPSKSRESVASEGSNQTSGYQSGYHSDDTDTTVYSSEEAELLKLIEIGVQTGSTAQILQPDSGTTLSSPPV
Test: Kinase inhibition assay (33P transfer), Kdr
Type: biochemical
Conditions: Table 3; read-out: KDR-1

IC50 lookup needed for `COc1cc(Nc2ncnc(Nc3ccc(-c4ccccc4)cc3)n2)cc(OC)c1OC` , thanks. 931 to 5590 nM

Quick one: IC50 of `c1ccc(COc2cccc(Nc3ncnc(-c4cccs4)n3)c2)cc1` ? > 12500 nM

Please give the measured IC50 for this molecule: `COc1cccc(Nc2nc3ccccc3n2-c2ncnc(Nc3cc(OC)c(OC)c(OC)c3)n2)c1` < 801 nM

What value of IC50 has been recorded for this entry: `COc1cc(Nc2ncnc(Nc3ccc(Br)cc3)n2)cc(OC)c1OC` < 925 nM

Consider the molecule `O=C1OCc2ccc(Nc3ncnc(Nc4cc(-c5ccco5)n[nH]4)n3)cc21` and give its measured IC50. < 1070 nM

Item `COc1ccc(Nc2ncnc(Nc3cccc(C)c3)n2)cc1OC` has what recorded IC50? 7110 to 10400 nM

Tell me the measured IC50 of `COC(=O)c1ccc(Nc2ncnc(-c3ccccc3)n2)cc1` , please. > 14700 nM

I would be grateful if you could share the reported IC50 for `COc1cc(Nc2ncnc(Nc3ccc(Br)cc3F)n2)cc(OC)c1OC` . < 888 nM

Need IC50 of `COc1cc(Nc2ncnc(N(c3ccc(Cl)cc3)c3nc4ccccc4[nH]3)n2)cc(OC)c1OC` , thanks. < 794 nM

What IC50 value was documented for this molecule, `COc1cc(Nc2ncnc(-n3c(Cl)nc4ccccc43)n2)cc(OC)c1OC` ? < 969 nM

# lookup: IC50 of `OCc1ccc(Nc2ncnc(-c3ccccc3)n2)cc1` > 16200 nM

Given the molecule `Cc1cccc(Nc2ncnc(Nc3ccc4[nH]ncc4c3)n2)c1` , what is its reported IC50? 1260 to 7560 nM

Tell me the measured IC50 of `COc1ccc(Nc2ncnc(Nc3ccc(OCc4ccccc4)cc3)n2)cc1O` , please. > 10800 nM

Quick one: IC50 for `COc1cccc(Nc2ncnc(Nc3cc(OC)c(OC)c(OC)c3)n2)c1` ? 1040 to 6260 nM

# query: IC50 of entry `COC(=O)c1cccc(Nc2ncnc(Nc3cc(-c4ccco4)n[nH]3)n2)c1` < 1060 nM

// IC50 lookup, key: `CNc1ncnc(Nc2cc(OC)c(OC)c(OC)c2)n1` > 15400 nM

Can you look up the measured IC50 of `CCOC(=O)Cc1cn(-c2ncnc(Nc3cc(OC)c(OC)c(OC)c3)n2)c2ccccc12` for me? < 863 nM

Can you look up the measured IC50 of `COc1ccc2c(c1)c(CCNC(C)=O)cn2-c1ncnc(Nc2cc(OC)c(OC)c(OC)c2)n1` for me? < 812 nM

I would be grateful if you could share the reported IC50 for `COc1ccc2c(ccn2-c2ncnc(Nc3cc(OC)c(OC)c(OC)c3)n2)c1` . < 982 nM

Sample `COc1cc(Nc2ncnc(-n3c(Nc4cccc(C)c4)nc4ccccc43)n2)cc(OC)c1OC` — what was its IC50? < 827 nM

Would you kindly share the measured IC50 for `COc1cc(Nc2ncnc(-c3ccc(N4CCNCC4)nc3)n2)cc(OC)c1OC` ? 8260 to 10600 nM
